# RUN DESCRIPTION: viability loss in PTEN-deleted cells – cell-based, validation, diverse DP compound set (AID 999);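 further: 100% = median luminescence of untreated cell control wells and 0% = no signal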
# CONDITION PARAMETERS: HCT116 PTEN-null viability, CellTiter-Glo, 60 h; at 10 µM; stronger effect = lower value
OUTCOME MEASURE: viability (%)
Express your answer in %, writing the number without its unit.

Query (molecule): N#CC(C#N)=Cc1cc(O)c(O)c([N+](=O)[O-])c1 ; field requested: viability
106

Same thing, different molecule: C[C@@H]1O[C@@H](OC2CC(O)C3(CO)C4C(CCC3(O)C2)C2(O)CCC(C3=CC(=O)OC3)C2(C)C[C@H]4O)[C@H](O)[C@H](O)[C@H]1O (stereo partly specified)
106

Same thing, different molecule: CCCC[C@H]1C(=O)O[C@H](C)[C@H](NC(=O)c2cccc(NC=O)c2OC)C(=O)O[C@@H](C)[C@@H]1OC(=O)CC(C)C
93.3

Same thing, different molecule: N#Cc1nn(-c2c(Cl)cc(C(F)(F)F)cc2Cl)c(N)c1S(=O)C(F)(F)F (stereo unspecified)
85.6

Same thing, different molecule: CC/C(=C(\c1ccccc1)c1ccc(OCCN(C)C)cc1)c1ccccc1
35.9

Same thing, different molecule: C[C@@H]1CC[C@H]2[C@@H](C)C(=O)O[C@@H]3OC4(C)CC[C@@H]1[C@]32OO4
71.5

Same thing, different molecule: CCN1C[C@@]2(COC)C3[C@@H](OC)[C@H]4C1[C@@]3(C1C[C@]3(O)C(OC)[C@H](O)[C@@]4(OC(C)=O)C1[C@H]3OC(=O)c1ccccc1)[C@H](OC)C[C@H]2O (stereo partly specified)
89.3

Same thing, different molecule: OCC1CCCN2CCCCC12 (stereo unspecified)
106

Same thing, different molecule: CCCN1CCC[C@@H]2Cc3cn[nH]c3C[C@H]21
105

Same thing, different molecule: CN(C)[C@@H]1C(=O)C(C(N)=O)=C(O)[C@@]2(O)C(=O)C3=C(O)c4c(O)cccc4[C@@](C)(O)C3CC12 (stereo partly specified)
97.1

Same thing, different molecule: COC(=O)C(O)C(O)(CCC(C)C)C(=O)OC1C(OC)=CC23CCCN2CCc2cc4c(cc2C13)OCO4 (stereo unspecified)
26.2

Same thing, different molecule: N#CC(C#N)=Cc1ccc([N+](=O)[O-])c(O)c1
108

Same thing, different molecule: CCCCCCCCCCCCCC(=O)O[C@@H]1[C@@H](C)[C@@]2(O)[C@@H](C=C(CO)C[C@]3(O)C(=O)C(C)=C[C@@H]23)[C@@H]2C(C)(C)[C@]12OC(C)=O
53.1

Same thing, different molecule: C[C@]12CC[C@@H](O)C[C@@H]1CC[C@@H]1[C@@H]2CC[C@]2(C)C(=O)CC[C@@H]12
98.8

Same thing, different molecule: CC(C)(C)[C@]1(O)C[C@@H]2OC(=O)CC23C(=O)O[C@@H]2OC(=O)[C@H](O)C231 (stereo partly specified)
93.3

Same thing, different molecule: CC1=C2[C@H]3OC(=O)[C@@H](C)[C@@H]3CC[C@@]2(C)C=CC1=O
95.7
